Below, each of the substances is paired with its reported OC43 vRNA reduction siRNA and siGRP78 value.
test system: HCoV-OC43; experiment: OC43 virion RNA, Branched DNA assay, infected HCT8 cells; type: cell-based, human coronavirus OC43; conditions: 10 nM siRNA along with 10 nM of siRNA targeting GRP78, HCT8 cells
READOUT TYPE: OC43 vRNA reduction siRNA and siGRP78 (%)

>>> numeric_readout("35 (GGGAUUUGGCCUUUUUGAUUATTAUCAAAAAGGCCAAAUCCCAUTT; siRNA; Self-complementary hairpin strand, chemistry not given here, further chemistry not given here; listed as Homo sapiens) [compound 35]")
96
>>> numeric_readout("32 (AGAAGAAAGUGGAAGCAAAGAUUUCUUUGCUUCCACUUUCUUCUUU; siRNA; Self-complementary hairpin strand, chemistry not given here, further chemistry not given here; listed as Homo sapiens) [compound 32]")
86

---

Tested on: RPLP1 protein
Assay: Target protein reduction by Western blot in HepG2.2.15 cells
Assay type: cell-based, human
Conditions: 10 nM siRNA, 72 h
Experimental: The host factors likely function in viral infection as proteins. Therefore, we determined whether the siRNAs could decrease the amounts of the target protein. Cell transfected with 10 nM of each siRNA for 72 h were lysed and the target proteins identified using Western blots probed with target-specific antibodies. The effective siRNAs described in Table 3 reduced the levels of the proteins by between 28 and 92% of the mock-treated samples. […]
READOUT TYPE: Target protein reduction in HepG2.2.15 cells (%)

>>> numeric_readout("26 (GAAGCAAAGAAAGAAGAAUCCTTAUUCUUCUUUCUUUGCUUCCATT; siRNA; Self-complementary hairpin strand, chemistry not given here, further chemistry not given here; listed as Homo sapiens) [compound 26]")
72
>>> numeric_readout("30 (AGGAUAAGAUCAAUGCCCUUCUUGAAGGGCAUUGAUCUUAUCCUUU; siRNA; Self-complementary hairpin strand, chemistry not given here, further chemistry not given here; listed as Homo sapiens) [compound 30]")
45
>>> numeric_readout("25 (GAUCAAUGCCCUCAUUAAAGCTTUUUAAUGAGGGCAUUGAUCUUTT; siRNA; Self-complementary hairpin strand, chemistry not given here, further chemistry not given here; listed as Homo sapiens) [compound 25]")
53
>>> numeric_readout("32 (AGAAGAAAGUGGAAGCAAAGAUUUCUUUGCUUCCACUUUCUUCUUU; siRNA; Self-complementary hairpin strand, chemistry not given here, further chemistry not given here; listed as Homo sapiens) [compound 32]")
71
>>> numeric_readout("24 (GCAAAGAAAGAAGAAUCCGTTCGGAUUCUUCUUUCUUUGCTT; siRNA; Self-complementary hairpin strand, chemistry not given here, further chemistry not given here; listed as Homo sapiens) [compound 24]")
48
>>> numeric_readout("27 (GGUCUUUUUGACUAAACCUCUTTAGGUUUAGUCAAAAAGACCAATT; siRNA; Self-complementary hairpin strand, chemistry not given here, further chemistry not given here; listed as Homo sapiens) [compound 27]")
51
>>> numeric_readout("31 (UUUGGCCUGGCUUGUUUGCAAUUUUGCAAACAAGCCAGGCCAAAUU; siRNA; Self-complementary hairpin strand, chemistry not given here, further chemistry not given here; listed as Homo sapiens) [compound 31]")
37

---

test system: HCoV-OC43; experiment: OC43 virion RNA, Branched DNA assay, infected HCT8 cells; format: cell-based, human coronavirus OC43; settings: 10 nM siRNA, HCT8 cells
READOUT TYPE: OC43 vRNA reduction (%)

>>> numeric_readout("28 (UAUGGCCUCUGUCUCCGAGCUUUAGCUCGGAGACAGAGGCCAUAUU; siRNA; Self-complementary hairpin strand, chemistry not given here, further chemistry not given here; listed as Homo sapiens) [compound 28]")
48
>>> numeric_readout("24 (GCAAAGAAAGAAGAAUCCGTTCGGAUUCUUCUUUCUUUGCTT; siRNA; Self-complementary hairpin strand, chemistry not given here, further chemistry not given here; listed as Homo sapiens) [compound 24]")
89

---

test system: RPLP2 protein; test: Target protein reduction by Western blot in HepG2.2.15 cells; format: cell-based, human; details: 10 nM siRNA, 72 h
Below, each of the substances is paired with its reported Target protein reduction in HepG2.2.15 cells value.
READOUT TYPE: Target protein reduction in HepG2.2.15 cells (%)

>>> numeric_readout("34 (GCUGAAUGGAAAAAACAUUGATTAAUGUUUUUUCCAUUCAGCUCTT; siRNA; Self-complementary hairpin strand, chemistry not given here, further chemistry not given here; listed as Homo sapiens) [compound 34]")
62.5
>>> numeric_readout("52 (CAAGGUUAUCAGUGUGCUGTTCAGCACACUGAUAACCUUGTT; siRNA; Self-complementary hairpin strand, chemistry not given here, further chemistry not given here; listed as Homo sapiens) [compound 52]")
58
>>> numeric_readout("48 (GCGCCAAGGACAUCAAGAATTUUCUUGAUGUCCUUGGCGCAA; siRNA; Self-complementary hairpin strand, chemistry not given here, further chemistry not given here; listed as Homo sapiens) [compound 48]")
54
>>> numeric_readout("39 (AGAGGAGAAGAAAGAUGAGAAUUUUCUCAUCUUUCUUCUCCUCUUU; siRNA; Self-complementary hairpin strand, chemistry not given here, further chemistry not given here; listed as Homo sapiens) [compound 39]")
48
>>> numeric_readout("42 (CCCAGCGCCAAGGACAUCAAGUUCUUGAUGUCCUUGGCGCUGGGUU; siRNA; Self-complementary hairpin strand, chemistry not given here, further chemistry not given here; listed as Homo sapiens) [compound 42]")
50
>>> numeric_readout("35 (GGGAUUUGGCCUUUUUGAUUATTAUCAAAAAGGCCAAAUCCCAUTT; siRNA; Self-complementary hairpin strand, chemistry not given here, further chemistry not given here; listed as Homo sapiens) [compound 35]")
78
>>> numeric_readout("44 (UGAGCUGAAUGGAAAAAACAUUUAUGUUUUUUCCAUUCAGCUCAUU; siRNA; Self-complementary hairpin strand, chemistry not given here, further chemistry not given here; listed as Homo sapiens) [compound 44]")
59
>>> numeric_readout("50 (CGACCGGCUCAACAAGGUUTTAACCUUGUUGAGCCGGUCGTC; siRNA; Self-complementary hairpin strand, chemistry not given here, further chemistry not given here; listed as Homo sapiens) [compound 50]")
48
>>> numeric_readout("47 (UGGCCUUUUUGAUUAAAUUTTAAUUUAAUCAAAAAGGCCAAA; siRNA; Self-complementary hairpin strand, chemistry not given here, further chemistry not given here; listed as Homo sapiens) [compound 47]")
67
>>> numeric_readout("41 (AUGGGAUUUGGCCUUUUUGAUUUAUCAAAAAGGCCAAAUCCCAUUU; siRNA; Self-complementary hairpin strand, chemistry not given here, further chemistry not given here; listed as Homo sapiens) [compound 41]")
58
>>> numeric_readout("49 (AAACAUUGAAGACGUCAUUTTAAUGACGUCUUCAAUGUUUTT; siRNA; Self-complementary hairpin strand, chemistry not given here, further chemistry not given here; listed as Homo sapiens) [compound 49]")
59
>>> numeric_readout("40 (AGUCUGAAGAGUCAGAUGAUGUUCAUCAUCUGACUCUUCAGACUUU; siRNA; Self-complementary hairpin strand, chemistry not given here, further chemistry not given here; listed as Homo sapiens) [compound 40]")
54
>>> numeric_readout("43 (GUAUCGAGGCGGACGACGACCUUGGUCGUCGUCCGCCUCGAUACUU; siRNA; Self-complementary hairpin strand, chemistry not given here, further chemistry not given here; listed as Homo sapiens) [compound 43]")
45
>>> numeric_readout("36 (CCUUUUUGAUUAAAUUCCUGCTTAGGAAUUUAAUCAAAAAGGCCTT; siRNA; Self-complementary hairpin strand, chemistry not given here, further chemistry not given here; listed as Homo sapiens) [compound 36]")
57

---

test system: HBeAg; details: 10 nM siRNA transfected into cells
Below, each of the substances is paired with its reported HBeAg reduction HepG2.2.15 cells value.
READOUT TYPE: HBeAg reduction HepG2.2.15 cells (%)

>>> numeric_readout("46 (GAAAGAUGAGAAGAAGGAGGAUUUCCUCCUUCUUCUCAUCUUUCUU; siRNA; Self-complementary hairpin strand, chemistry not given here, further chemistry not given here; listed as Homo sapiens) [compound 46]")
44
>>> numeric_readout("48 (GCGCCAAGGACAUCAAGAATTUUCUUGAUGUCCUUGGCGCAA; siRNA; Self-complementary hairpin strand, chemistry not given here, further chemistry not given here; listed as Homo sapiens) [compound 48]")
32

---

tested on: HBeAg; conditions: 10 nM siRNA transfected into cells
# label = bin(measured HBeAg reduction HepG2.2.15 cells), where bins are low = under 40%, mid = from 40% up to 60%, high = 60% and over

>>> class_label("42 (CCCAGCGCCAAGGACAUCAAGUUCUUGAUGUCCUUGGCGCUGGGUU; siRNA; Self-complementary hairpin strand, chemistry not given here, further chemistry not given here; listed as Homo sapiens) [compound 42]")
"mid"
>>> class_label("29 (UGUCUCCGAGCUCGCCUGCAUUUAUGCAGGCGAGCUCGGAGACAUU; siRNA; Self-complementary hairpin strand, chemistry not given here, further chemistry not given here; listed as Homo sapiens) [compound 29]")
"mid"
>>> class_label("22 (CAUCUACGUGGGUAACUUAUUUAAGUUACCCACGUAGAUGUU; siRNA; Self-complementary hairpin strand, chemistry not given here, further chemistry not given here; listed as Homo sapiens) [compound 22]")
"low"
>>> class_label("43 (GUAUCGAGGCGGACGACGACCUUGGUCGUCGUCCGCCUCGAUACUU; siRNA; Self-complementary hairpin strand, chemistry not given here, further chemistry not given here; listed as Homo sapiens) [compound 43]")
"high"
>>> class_label("28 (UAUGGCCUCUGUCUCCGAGCUUUAGCUCGGAGACAGAGGCCAUAUU; siRNA; Self-complementary hairpin strand, chemistry not given here, further chemistry not given here; listed as Homo sapiens) [compound 28]")
"low"
>>> class_label("34 (GCUGAAUGGAAAAAACAUUGATTAAUGUUUUUUCCAUUCAGCUCTT; siRNA; Self-complementary hairpin strand, chemistry not given here, further chemistry not given here; listed as Homo sapiens) [compound 34]")
"high"
>>> class_label("49 (AAACAUUGAAGACGUCAUUTTAAUGACGUCUUCAAUGUUUTT; siRNA; Self-complementary hairpin strand, chemistry not given here, further chemistry not given here; listed as Homo sapiens) [compound 49]")
"low"
>>> class_label("37 (CUGAAUGGAAAAAACAUUGAAUUUUCAAUGUUUUUUCCAUUCAGUU; siRNA; Self-complementary hairpin strand, chemistry not given here, further chemistry not given here; listed as Homo sapiens) [compound 37]")
"mid"
>>> class_label("50 (CGACCGGCUCAACAAGGUUTTAACCUUGUUGAGCCGGUCGTC; siRNA; Self-complementary hairpin strand, chemistry not given here, further chemistry not given here; listed as Homo sapiens) [compound 50]")
"mid"
>>> class_label("24 (GCAAAGAAAGAAGAAUCCGTTCGGAUUCUUCUUUCUUUGCTT; siRNA; Self-complementary hairpin strand, chemistry not given here, further chemistry not given here; listed as Homo sapiens) [compound 24]")
"high"
>>> class_label("51 (GAAGAUCUUGGACAGCGUGTTCACGCUGUCCAAGAUCUUCTT; siRNA; Self-complementary hairpin strand, chemistry not given here, further chemistry not given here; listed as Homo sapiens) [compound 51]")
"low"
